Biological target: MPV fusion glycoprotein with the D280N mutation (MPV-F N280) (metapneumovirus)
Test: SPR; F protein loaded on streptavidin sensors, mAb in solution
measured_property: pKd
As a rule, pKd stands for the negative log10 of the concentration, concentration in M.

Endpoint output: pKd of MPK153 (antibody, V domains shown) VH: EVHLVESGGGLVKPGGSLRLSCAASGFTFTGYFMIWIRQAPGKGLEWISYISSSSNYINYADSVKGRFTISRDNGQNTLYLQMNSLRPDDTAVYYCATEQVPSPGPFDLWGQGTLVTVSS VL: QSVLTQPPSVSGAPGQRVIISCTGTSSNIGAGYDVHWYQQFPGASPKLLIFRNTDRPSGVPDRFSGSKSGSSASLAIAGLQAEDEADYYCQSYDRSLDGWVFGGGTKVTVL . Value?
8.26

If you can, please state the reported pKd value of MPK127 (antibody, V domains shown) VH: QVQLVISGGGLVKPGGSLRLSCAASGFRIDSFSLNWVRQAPGKGLEWLASVSASSSYIDYRDSVAGRFTISRDNAQNSLYLQMDTLRAEDTAVYYCARTNGYETGSFDVWGQGTLVTVAS VL: QSVLTQPPSVSGAPGQRVTISCTGSSSNIGAGYDVHWYQQLPGKAPKLLINANNNRPSGVPDRFSGSNSGTSASLAITGLQAEDEADYYCQSYDKTLSGYVFGLGTTVTVL .
12.00
